- Test summary: NCI Yeast Anticancer Drug Screen. Data for the mlh1 rad18 strain (AID 175)
- Reported conditions: S. cerevisiae mlh1 rad18 strain growth inhibition; at 5.0 µM (retest, dose inferred, filed as 0.5); active compounds read high
Compounds without any hit were thinned out: in the full panel of roughly 79,000, 15% have a hit.
Assay readout: growth inhibition (%)
Give the value in % but do not write % after it.

Observe how each entry below is paired with its result.
# Compound, growth inhibition (%)
measured = [
    ("C=CCOc1ccc(C2(c3ccc(OCC=C)cc3)C(=O)Nc3ccccc32)cc1", 5),
    ("CCCCCCCCCCCCNC(=O)C[n+]1ccc(C(N)=O)cc1", 0),
]

Value of measured growth inhibition for the entry C=C(C)/C([O-])=N/[N+](C)(C)CC(O)CCCCCCCCCCCC (centres undefined) : 31

Value of measured growth inhibition for the entry COc1ccc(C(=O)C2OC2c2ccccc2)cc1 (centres undefined) : 7

----------
Below, each entry is listed alongside its reported growth inhibition.
- Test summary: NCI Yeast Anticancer Drug Screen. Data for the rad50 strain (AID 155);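 note: 0% = growth of vehicle-only cultures of the same strain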
- Reported conditions: S. cerevisiae rad50 strain growth inhibition; at 50.0 µM (retest, dose inferred, filed as 5.0); active compounds read high
This is part of a sample that, as a whole, favours compounds with a hit. Of some 79,000 tested, about 15% had one in any assay. Calls of active or inactive are those of the source. No stated cut-off is given here; in the data, active means growth inhibition above about 70%; inactive means the rest.

Observe how each entry below is paired with its result.
# Compound, Assay readout, Result
measured = [
    ("COc1ccc(CCCCC(=O)O)cc1O", "growth inhibition", "-161% (inactive)"),
    ("CCCC(C)(O)C(C)CC (stereo not given)", "growth inhibition", "5% (inactive)"),
    ("CC12CCC(O)CC1=CCC1C2CCC2(C)c3nc(C#N)c(=N)n(O)c3CC12 (stereo not given)", "growth inhibition", "96% (active)"),
    ("N#CC12CCCC(=O)N1c1ccccc1S2 (stereo not given)", "growth inhibition", "5% (inactive)"),
    ("C(/Cc1ccc2c(c1)OCO2)=N\\NC1=NCCCCN1", "growth inhibition", "-18% (inactive)"),
    ("CC/C=C\\C/C=C\\C/C=C\\CCCCCCCC(=O)OCC(O)CO (stereo not given)", "growth inhibition", "4% (inactive)"),
    ("CC1(C)OC2C(CO)OC(n3ncc(=S)[nH]c3=O)C2O1 (stereo not given)", "growth inhibition", "28% (inactive)"),
    ("N#CC(C#N)C(c1ccccc1)c1ccccc1", "growth inhibition", "5% (inactive)"),
]

Value of measured growth inhibition for the entry COc1ccc(CSC2=C(C#N)C(=O)NC3(CCCCC3)S2)cc1 : 11% (inactive)

Value of measured growth inhibition for the entry COc1ccc2c(c1)C1(C)CCCC(C)(C(=O)O)C1CC2 (stereo not given) : 99% (active)

----------
- Test summary: NCI Yeast Anticancer Drug Screen. Data for the cln2 rad14 strain (AID 165);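 note: 0% = growth equal to vehicle treated cultures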
- Reported conditions: S. cerevisiae cln2 rad14 strain, at 50.0 µM, active compounds read high
This is part of a sample that, as a whole, favours compounds with a hit. Of some 79,000 tested, about 15% had one in any assay.
// label = rule met if growth inhibition is not less than 50%, otherwise rule not met

Check out these entries, answers already filled in.
# Molecule, Classification
measured = [
    ("COc1nc2c(ccn2C2OC(COC(C)=O)C(OC(C)=O)C(OC(C)=O)C2OC(C)=O)c(=O)n1C (stereo not given)", "rule not met"),
    ("c1ccc2nc(C[n+]3cccc4ccccc43)ccc2c1", "rule met"),
    ("O=C(CCCCOCCCCC(=O)OCC1CCCO1)OCC1CCCO1 (stereo not given)", "rule not met"),
    ("COc1ccc(NC2Oc3cc4c(cc3C(c3cccc(OC)c3OC)C2C)OCO4)cc1 (stereo not given)", "rule not met"),
    ("CC(C)=CC(=O)OC(CCCc1ccccc1)c1ccc2c(c1)OCO2 (stereo not given)", "rule not met"),
]

Query: Record O=C1c2ccccc2C(=O)c2sc(Nc3cc(Cl)ccc3Cl)nc21 ; criterion: growth inhibition no lower than 50%. Met?
Result: rule met

Query: Record CCN1C(/C=C/c2ccc(O)c3ncccc23)CCC2CC(C)CCC21 (stereo not given) ; criterion: growth inhibition no lower than 50%. Met?
Result: rule met

Query: Record CCO/N=C1\CCCCC1SS(=O)(=O)O (stereo not given) ; criterion: growth inhibition no lower than 50%. Met?
Result: rule not met

Query: Record CCOC(=O)Cc1csc2[n+]1C(=O)/C(=C\c1cccc(Cl)c1Cl)S2 ; criterion: growth inhibition no lower than 50%. Met?
Result: rule not met

Query: Record O=C1C(Br)=C(Br)C(=O)c2ccccc21 ; criterion: growth inhibition no lower than 50%. Met?
Result: rule met

Query: Record COc1cccc(/C=N/NC(=O)c2c(-c3ccccc3)noc2C)c1O ; criterion: growth inhibition no lower than 50%. Met?
Result: rule met

Query: Record COc1ccc(C2C3C(=O)OCCOC(=O)C3C2c2ccc(OC)c(OC)c2)cc1OC (stereo not given) ; criterion: growth inhibition no lower than 50%. Met?
Result: rule not met

Query: Record CCNc1ccccc1C ; criterion: growth inhibition no lower than 50%. Met?
Result: rule met

Query: Record Cc1cc(N(CCC#N)CCC#N)ccc1/C(Sc1ccccc1)=C(\NC(=O)/C=C/c1ccccc1)C(=O)Sc1ccccc1 ; criterion: growth inhibition no lower than 50%. Met?
Result: rule met

----------
- Test summary: NCI Yeast Anticancer Drug Screen. Data for the rad50 strain (AID 155);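 note: 0% = growth of vehicle-only cultures of the same strain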
- Reported conditions: S. cerevisiae rad50 strain growth inhibition; at 5.0 µM (retest, dose inferred, filed as 0.5)
This is part of a sample that, as a whole, favours compounds with a hit. Of some 79,000 tested, about 15% had one in any assay. Calls of active or inactive are those of the source. No stated cut-off is given here; in the data, active means growth inhibition above about 70%; inactive means the rest.
Your response should consist of one outcome taken from active, inactive

# Molecule, Classification
rows = [
    ("CC1=C(C(=O)Nc2ccc([N+](=O)[O-])cc2)C(c2ccccc2F)C(C(=O)Nc2ccc([N+](=O)[O-])cc2)=C(C)N1", "inactive"),
]

Query: I would be grateful if you could indicate the recorded call for CC(=O)N(C1=C(Cl)C(=O)c2ccccc2C1=O)c1ccc(F)cc1 .
Result: inactive

Query: I would be grateful if you could indicate the recorded call for COc1cc2c(cc1OC)[C@H]1C(=O)c3cc4c(cc3[C@H]1N(C)C2=O)OCO4 .
Result: inactive

Query: I would be grateful if you could indicate the recorded call for CCN(CC)c1ccc(N=Nc2ccc(Br)cn2)c(O)c1 .
Result: inactive

----------
- Test summary: NCI Yeast Anticancer Drug Screen. Data for the mec2-1 strain (AID 157)
- Reported conditions: S. cerevisiae mec2-1 strain, at 50.0 µM, active compounds read high
The panel holds about 79,000 compounds, 15% with a hit somewhere; the sample as a whole holds those more often.
Assay readout: growth inhibition (%)
Give the value in % but do not write % after it.

# Molecule, Unit of measurement, growth inhibition
records = [
    ("O=Cc1c(I)cc(I)c(O)c1I", "%", 98.7),
    ("CCCCCCCCCCOC(=O)c1cc[n+](C)cc1", "%", 9.5),
    ("COc1cccc2c1C(=O)c1c(O)c3c(c(O)c1C2=O)C[C@@](O)(/C(C)=N\\NC(N)=O)C[C@@H]3OC1CC(N)C(O)C(C)O1 (stereo partly drawn)", "%", 43.8),
    ("CCOC(=O)Nc1nc2ccc(SC#N)cc2s1", "%", 64.8),
]

Value of measured growth inhibition for the entry CC(C)(CN1CCCCC1)C(=O)CC(SCCS(=O)(=O)O)c1ccc(Cl)c(Cl)c1 (stereo not drawn) : 94

Value of measured growth inhibition for the entry CN(C)CC(C)(C)C(/C=C/c1ccccc1)=N\Nc1ccccc1 : 90.2

Value of measured growth inhibition for the entry c1cc(Nc2ccc(Nc3ccc(CN4CCCCC4)cc3)cc2)ccc1CN1CCCCC1 : 89.8

Value of measured growth inhibition for the entry [Cl][Ge]([c]1ccccc1)[c]1ccccc1.[Cl][Ge]([c]1ccccc1)[c]1ccccc1 : 41.5

Value of measured growth inhibition for the entry CC(C)(C)N=C=NC(c1ccccc1)(c1ccccc1)c1ccccc1 : -6.1

----------
- Test summary: NCI Yeast Anticancer Drug Screen. Data for the cln2 rad14 strain (AID 165);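 note: 0% = growth equal to vehicle treated cultures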
- Reported conditions: S. cerevisiae cln2 rad14 strain, at 5.0 µM (retest, dose inferred, filed as 0.5)
About 79,000 compounds went through this panel and 15% of them were active in at least one assay; those are over-represented in the sample as a whole. The source made the active and inactive calls. Rule as the data show it: active = growth inhibition above about 70%; inactive = the rest.
Your response should consist of one outcome taken from active, inactive

# Molecule, Classification
rows = [
    ("CCOC(=O)C(NC(=O)c1ccccc1)[CH](c1ccc(OC)cc1)[Sn]([c]1ccccc1)([c]1ccccc1)[c]1ccccc1 (stereo not given)", "inactive"),
    ("CCCCCCSC(=Cc1cccc[n+]1C)SCCCCCC", "active"),
    ("Nc1c(Cl)nc(C(F)(F)F)nc1NCc1ccccc1", "active"),
    ("O=C(Cc1ccccc1)c1ccccc1C(=O)NNc1ccccc1", "inactive"),
]

We next turn to a different molecule, shown below.
Query: I would be grateful if you could indicate the recorded call for CC1=C(C)C1[N+](=O)[O-] .
Result: inactive
